Cited source for all entries: the DeepSol protein solubility set

# methodSummary: soluble on expression in E. coli; label from the status in PepcDB or PDB records
endpointName: soluble on expression in E. coli

Q: Using the record for "MNCMWCDSTEAKESLNTVYWELPDGTKAIEIQETPCISCSSCGMDYQSDHTVKEIEDQLFLIYTKDLPKQLTYEELMGRPRLLKRNYFDF" , report its soluble on expression in E. coli.
A: not soluble

Q: Then this sequence: "MGSDKIHHHHHHMPLSMNREVFITCAVTGSGGTQDRSPHVPRSPKEIAESAIAAAKAGAAIVHCHVRDPETGAPSRDLGLYREVTDRIRESDTDVVLNLTAGMGGDIVFGGVERPLPVTEDGTDMIGASARVAHVAECLPEICTLDCGTMNFAEADYVMTNTPGMLQAMGQMMTDLGVKPEIEAFDTGHLWYAKQLVKDGVLKSDALVQLCMGVPWGAPNDLNTFMAMVNNVPDDWNWSAFSLGRDQMAYVAASVLAGGNVRVGLEDNLYLDKGVLAENWQLVERAGTIVSNLGARVITPAEVREKLGLQKRAPITK"
A: not soluble

Q: Then this sequence: "MSGELKDRLVARALEEGFVSCRVCRPWDVPEMPARLGAFVEAGYHGQMGWMAERMEWRGDPAALWPEARSVIMLAESYAPDTDPMEVVGQPDRGAISVYARGKDYHDLVKKRLKRLARWLIEAGGGEVKVFVDTAPVPEKALGQAAGLGWQGKHTNLVSRDWGNWAFLGSVFTTLDLPSDPVGRDNCGSCSACLTACPTDAFPAPYRLDARRCISYLTIEHKGPVDEELRAKLGNRIYGCDDCLAACPWNKFAVAASDLRYGARPELSAPALADLARLDDAGFREMFSGSPIKRIGRDRFVRNVLYAIGNSGLPALRPVAQDLAQDSDPTVADAARWAAAKLAMSR"
A: not soluble

====

# methodSummary: soluble on expression in E. coli; label from the status in PepcDB or PDB records
endpointName: soluble on expression in E. coli

Q: Using the record for "MGSDKIHHHHHHMGQTTFSRQKDGQPDTAYHDSETTYHYSETTYNYAYLDESTKGMIRRAILKAIAIPGHQVPFGSREMPMPYGWGTGGIQITASIIGPNDTLKVIDQGSDDTTNAVSIRAFFRKVTNVPTTEKTSEATLIQTRHRIPETPLKEDQILVFQVPIPEPLRFIEPRETETCKMHALEEYGVMQVKLYEDIARFGHIATTYAYPVKVNHRYVMDPSPIPKFDNPKMDMMPALQLFGAGREKRVYAVPPYTVVESLDFDDHPFTIQQWDKPCELCGARDSFLDEVVMDDDGTRMFVCSDTDYCQLRQSQGEKTS" , report its soluble on expression in E. coli.
A: not soluble

Q: Then this sequence: "MGSDKIHHHHHHMTGFYEFFSLPDRVEVVCPLCDGCATFTYAHVLQIEKKDAHLFENEQFEIKLFNQRFAHKWPCVLFFPPLFGAVSWREKFPEKYQGASTWEHRANSAFTDGTDLGLICCHQCMAKQKHQLEWPQDAFYSIEFKGHLLWAFNKMMMQQIRDYIQAKDRDAVFASEPIVIRHLPTVFKLAKNREGLVKKINKLIYRP"
A: not soluble

Q: Then this sequence: "MWKWETENDAKGVVVIAHNILEHTGRYAYVITMLRRNGYHVIMGDLPGQGQTSRAQKGQIDDFNTYHENILEWIKIANEYKIPTFVLGVGLGGLIILNLLEKTELPIEGILLFSPMLELKRDYKGRKNKLISNVGKISKDTRFKVGITPQDLTRNDEIIEETANDGLMLKKVTYSWYNLINEKMKETMDHIRDIKPISALIMYGTNDKILETQSINEMKDKLKSKEMYFKVWDGLYHEIHNEPERDLVMRYVLSFLNNSVNTMGFIVNEEEIEDI"
A: not soluble

Q: Then this sequence: "MGFDLFGKIEDILKELPQDKEASVEDFEEERIKNCVPRIHKELREGFSPLEAGVLPYAISLNKGCYVGQEAIARVYFRGRTPRVLTKFEVIEQVKEEEKILEGNKAIGLITSVSPSGKMALGYILRAKFEKGKEYQTESGKVKAKGVCEDGSTLEHHHHHH"
A: not soluble

More entries:
Q: Using the record for "MKKAGKKNSDAGKTFILISSSCSSCQKAIEFFDQNKISYVVENFYKKPISDKRFKDILSLSEDGTESLFSKRADQIKATNSVSVEELSISELIKLVRERPSLLRRPIIIQYNSSGIPKRMRIGYNSSEIKVFERKLIEPKPIIQQ" , report its soluble on expression in E. coli.
A: soluble

Q: Then this sequence: "MSGLRVYSTSVTGSREIKSQQSEVTRILDGKRIQYQLVDISQDNALRDEMRTLAGNPKATPPQIVNGNHYCGDYELFVEAVEQDTLQEFLKLA"
A: soluble

Q: Then this sequence: "MAIQVKASLRKNPQDKKAAGKYYAQVVLAPEMTQRQIIDQIADRCTVTGSDVKAVLDALMTVIKRNLANGSPIRLGDLGSFRPSVSGIGSENVDKFTASNVKKARVIYVPSAEIKEAVAMYAFSKVGATAEGGNTEKPGGGDIDNPGGGDEEAPDPTVLEHHHHHH"
A: soluble

Q: Then this sequence: "GSHMKEDQVVAEEPGFQDEEESLFQDIDLLQKHGINVADIKKLKSVGICTIKGIQMTTRRALCNVKGLSEAKVDKIKEAANKLIEPGFLTAFEYSEKRKMVFHITTGSQEFDKLLGGGIESMAITEAFGEFRTGKTQLSHTLCVTAQLPGAGGYPGGKIIFIDTENTFRPDRLRDIADRFNVDHDAVLDNVLYARAYTSEHQMELLDYVAAKFHEEAGIFKLLIIDSIMALFRVDFSGRGELAERQQKLAQMLSRLQKISEEYNVAVFVTNQMTADPGATMTFQADPKKPIGGHILAHASTTRISLRKGRGELRIAKIYDSPEMPENEATFAITAGGIGDAKE"
A: soluble

Q: Then this sequence: "ECGHISVSAPIVHLGDPITASCIIKQNCSHLDPEPQILWRLGAELQPGGRQQRLSDGTQESIITLPHLNHTQAFLSCSLNWGNSLQILDQVELRAGYPPAIPHNLSCLMNLTTSSLICQWEPGPETHLPTSFTLKSFKSRGNCQTQGDSILDCVPKDGQSHCSIPRKHLLLYQNMGIWVQAENALGTSMSPQLCLDPMDVVKLEPPMLRTMDPSPEAAPPQAGCLQLSWEPWQPGLHINQKCELRHKPQRGEASWALVGPLPLEALQYELCGLLPATAYTLQIRCIRWPLPGHWSDWSPSLELRTTERAAAPR"
A: soluble

Q: Then this sequence: "MSRNLHHTEEIYQSSYLNSSLIEFMPNTILPGKETVFMSSKMEQIIEEIEDYIDGCKPSPISRNKILVNREQLEELLSELRTKTPEEVKRYQKIISNKEAILADAQAKADQIIAQAQIQTNELVSEHQIMQQAYAQANEVVQIATKQAQEILDSATNEANNLRMSAMAYTDSQLKSIEDILTGSIETSKARYDSLISSLQQFEDVVAANRAELFPPEENGDEAAGAESSDNEATSDTSDDDIEITNISDSDEDAK"
A: not soluble

Q: Then this sequence: "MDSEQINVNLDIGAKAVMLARRAAAAKLNNEKLPEVPDDPIFHEKHGVFTTINTYPDNQLRGCIGFPEPYYELGEGIIKSSIYAATDDPRFDPMEPDELNRVTFELSILTVPQEVTVNPEERPKAITVGKDGIIAVYNGASGLLLPQVATEYRMSAEEFLEALCEKAGLWQGCWKYKKVKISKFQAIVFGEIEPNGKVEQRAAALEHHHHHH"
A: soluble

Q: Then this sequence: "MSLKVSAHNGNSDPSGAVQRRQSFRKSKTEDTVGTGNNGAANGGGGGAAANNNQMLENDLLSKYMGNQSPARQQVKKNLLNGTSGGGESVPAKPKTYDARCYVQNGSINFGKIITDEVLAADYDLVEAAKKMSDFAGTTALIAVIHRTKLIVANVGDSRGVMCDFKGNAIPLSFDHKPQQVREQKRIADAGGFIAFKGVWRVAGILATSRALGDYPLKEKNLVIANPDVLSFDLVDHRPQFLILASDGLWDTFTNEEAVAYVRERLDEPHFGAKSIALQSYSRGSVDNITVLVIVLKNGRYEIGSSSNEGHHHHHH"
A: soluble

====

# methodSummary: soluble on expression in E. coli; label from the status in PepcDB or PDB records
endpointName: soluble on expression in E. coli

Observe how each entry below is paired with its result.
Q: Using the record for "MGSDKIHHHHHHMEVDDVWDDTELIKMYDESLQEISKNETSAKITSRKFKGEDGKMYTWKVGGKCMAPYEENGEVTDYPATIDTIGGADNLEVGVTFIYYGGQAVVQMKDLWLNEEAIADAVKAENDLQKTKKTSTVNSVAHSNSKSTSSAPNTSMPFPSFAPPVPPNIIAMAPVNQKEAMNSMLMSWYMSGYHTGYYQALADQKNVQN" , report its soluble on expression in E. coli.
A: not soluble

Q: Then this sequence: "MMNNMDSIINYIYEGDYFIVTSHISPDGDNIGSTLSMYYTLKNLGKNVYYVLDDEAPLNLRFLVEGVKIYKSNEFNMKNYSLIALDCGDKMRICVSDEIKNNASKLICIDHHASNDSYGDLNYVDIDASSTCELVYNLLVRFQQIKDINIINEDIATCLYTGLVTDTGNFSYSNVHASSFEMAKNLLVLGAQKNTIIQNIYQSNSSGYYKLLGEALKGLEIFDSKVSSIVLTQDMMNRNNISFNDVDGITTYTRDIKGIEVGILFKEKKQNEIKVSFRSKNYVDVSEIAKLFGGGGHVRAAGCTIRDSIDNAKKMVLEAVLKSI"
A: not soluble

Q: Then this sequence: "MLKVEMLSTGDEVLYGQIVDTNAAWLADFFFHQGLPLSRRNTVGDNLDDLVTILRERSQHADVLIVNGGLGPTSDDLSALAAATAKGEGLVLHEAWLKEMERYFHERGRVMAPSNRKQAELPASAEFINNPVGTACGFAVQLNRCLMFFTPGVPSEFKVMVEHEILPRLRERFSLPQPPVCLRLTTFGRSESDLAQSLDTLQLPPGVTMGYRSSMPIIELKLTGPASEQQAMEKLWLDVKRVAGQSVIFEGTEGLPAQISRELQNRQFSLTLSEQFTGGLLALQLSRAGAPLLACEVIPSQEETLAQTAHWITERRANHFAGLALAVSGFENEHLNFALATPDGTFALRVRFSTTRYSLAIRQEVCAMMALNMLRRWLNGQDIASEHGWIEVVESMTLSV"
A: not soluble

Q: Then this sequence: "MSLDLRARVREELERLKREGLYISPKVLEAPQEPVTRVEGREVVNLASNNYLGFANHPYLKEKARQYLEKWGAGSGAVRTIAGTFTYHVELEEALARFKGTESALVLQSGFTANQGVLGALLKEGDVVFSDELNHASIIDGLRLTKATRLVFRHADVAHLEELLKAHDTDGLKLIVTDGVFSMDGDIAPLDKIVPLAKKYKAVVYVDDAHGSGVLGEKGKGTVHHFGFHQDPDVVQVATLSKAWAGIGGYAAGARELKDLLINKARPFLFSTSHPPAVVGALLGALELIEKEPERVERLWENTRYFKRELARLGYDTLGSQTPITPVLFGEAPLAFEASRLLLEEGVFAVGIGFPTVPRGKARIRNIVTAAHTKEMLDKALEAYEKVGKRLGIIR"
A: soluble

Q: Then this sequence: "MSQEQVEMIYAKTIEQILEMTGNATANFLPVLGVKSIEMAIGQMEEYLEMLKNLRVDYEKEPNLQSCMSPRLNDSMLIHRNRLARTSKSRLALYRTSPEIARFSRGSPDDIENENLSMSKIRSITEETSILDPTLCMDETTHQRGFLADVSDMNGTVRSRMPSFNFNHISPVPAEKTRRHSVLNVTTDFDVDLSSLCEPSQIEENSGQILFQNVLESALRTPNANNNTILLTDSEVTPVNISNLWNVKLRPGSNRKIDNGIRKEIQRQLACDSQL"
A: not soluble

Q: Then this sequence: "MPVTLSFGNHQNYTLNESRLAHLLSADKEKAIHMGGWDKVQDHFRAEKKDHALEVLHSIIHGQGRGEPGEMEVNVEDINKIYAFKRLQHLACPAHQDLFTIKMDASQTQFLLMVGDTVISQSNIKDILNISDDAVIESMSREERQLFLQICEVIGSKMTWHPELLQESISTLRKEVTGNAQIKTAVYEMMRPAEAPDHPLVEWQDSLTADEKSMLACINAGNFEPTTQFCKIGYQEVQGEVAFSMMHPCISYLLHSYSPFSEFKPTNSGFLKKLNQDYNDYHAKKMFIDVILEKLYLTHERSLHIGKDGCSRNILLT"
A: not soluble

More entries:
Q: Using the record for "GEFAQECQNLEVERQRRLERIKQKQSQLQELILQQIAFKNLVQRNRHAEQQASRPPPPNSVIHLPFIIVNTSKKTVIDCSISNDKFEYLFNFDNTFEIHDDIEVLKRMGMACGLESGSCSAEDLKMARSLVPKALEPYVTEMAQGTVGGVFITTA" , report its soluble on expression in E. coli.
A: soluble

Q: Then this sequence: "MAHHHHHHMASSSDADGKEVGSSGEGNRATGGKWRRPSLAQQRARRAQLPPAFDVVHWNDEDISRGHLLRVLHRDTFVVLDYHRQARMLTEEGNKAERVVSVMLPAVYTARFLAVLEGRSEKVEVHSRYTNATFTPNPAAPYTFTLKCTSTRPAQQKQQVAGEEGDETFEWTVEFDVAESLMLQRFLTQALHYNTGFARTSV"
A: soluble

Q: Then this sequence: "MKSLIIVNPADCIGCRTCEVACVVAHPSEQELNADVFLPRLKVQRLDSISAPVMCHQCENAPCVGACPVGALTMGEQVVQTNSARCIGCQSCVSACPFGMITIQSLPGDTRQQIVKCDLCEQREEGPACVESCPTQALQLLTERELRRVRQQRIVASGENPL"
A: not soluble

Q: Then this sequence: "MSLRKLGPVTIDPRRHDAVLFDTTLDATQELVRQLQEVGVGTGVFGSGLDVPIVAAGRLAVRPGRCVVVSAHSAGVTAARESGFALIIGVDRTGCRDALRRDGADTVVTDLSEVSVRTGDRRMSQLPDALQALGLADGLVARQPAVFFDFDGTLSDIVEDPDAAWLAPGALEALQKLAARCPIAVLSGRDLADVTQRVGLPGIWYAGSHGFELTAPDGTHHQNDAAAAAIPVLKQAAAELRQQLGPFPGVVVEHKRFGVAVHYRNAARDRVGEVAAAVRTAEQRHALRVTTGREVIELRPDVDWDKGKTLLWVLDHLPHSGSAPLVPIYLGDDITDEDAFDVVGPHGVPIVVRHTDDGDRATAALFALDSPARVAEFTDRLARQLREAPEGHHHHHH"
A: soluble
